Give EC50 for every item shown.
# Target Or Test System: ABCD2 WT (Homo sapiens, UniProt Q9UBJ2)
# Sequence (Q9UBJ2 whole entry): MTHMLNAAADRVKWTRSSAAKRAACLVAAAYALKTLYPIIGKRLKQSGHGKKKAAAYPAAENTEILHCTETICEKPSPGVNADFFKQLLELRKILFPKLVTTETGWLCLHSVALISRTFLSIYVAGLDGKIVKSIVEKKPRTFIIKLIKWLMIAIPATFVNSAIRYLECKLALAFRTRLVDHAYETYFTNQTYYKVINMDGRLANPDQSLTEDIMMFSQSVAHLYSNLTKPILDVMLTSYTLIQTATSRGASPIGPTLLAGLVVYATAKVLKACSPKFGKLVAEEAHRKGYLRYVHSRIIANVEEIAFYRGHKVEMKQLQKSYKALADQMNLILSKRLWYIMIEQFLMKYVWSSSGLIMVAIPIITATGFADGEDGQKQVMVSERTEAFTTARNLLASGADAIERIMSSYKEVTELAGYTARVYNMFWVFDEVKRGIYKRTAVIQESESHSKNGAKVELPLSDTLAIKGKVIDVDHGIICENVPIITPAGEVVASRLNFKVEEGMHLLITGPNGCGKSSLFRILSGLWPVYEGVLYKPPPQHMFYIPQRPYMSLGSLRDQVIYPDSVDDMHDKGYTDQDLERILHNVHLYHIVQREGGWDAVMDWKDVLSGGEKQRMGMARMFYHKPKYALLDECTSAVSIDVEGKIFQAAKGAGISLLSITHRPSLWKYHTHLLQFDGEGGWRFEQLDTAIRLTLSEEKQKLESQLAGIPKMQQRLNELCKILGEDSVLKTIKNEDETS
# Assay Notes: D2 correction dose-response assay: ABCD2 WT HiBit protein expression
# Assay Conditions: HEK-293/ABCD2 WT cells, 24 hours treatment, HiBit luminescence; class combines EC50 and Mean MaxAct (fold); read-out: ABCD2 WT EC50, Emax

stdin: Any idea what its EC50 is? The compound is Cc1sc(C2CC2)nc1Oc1nc(-c2cncc(C#N)c2)ccc1NS(C)(=O)=O
stdout: < 1 µM

stdin: Need EC50, item Cc1cc(C)c(Oc2nc(-c3cncc(N4CCOCC4)c3)ccc2NS(C)(=O)=O)c(C)n1
stdout: 1 to 10 µM

stdin: I am curious: what EC50 value has been reported for Cc1cc(C(F)(F)F)nc(C2CC2)c1Oc1nc(-c2cncc(C#N)c2)ccc1S(=N)(=O)C1CCOCC1 (stereo not shown) ?
stdout: 10 to 25 µM

stdin: For the compound shown here, Cc1cc(C)c(Oc2nc(-c3cncc(Cl)c3)ccc2S(=O)(=O)NCc2ccccc2)c(C)c1 , give the reported EC50.
stdout: 1 to 10 µM

Where these numbers come from: patent US20250228835A1
